# tested_on: SARS-2 RBM^hg RBD construct (SARS-2 RBD with engineered glycans at 448, 475, 494 and 501) (SARS-CoV-2 (engineered), UniProt P0DTC2 319-529)
# assay_text: BLI with recombinant Fabs, drawn table of KD (µM)
pKd: −log10 of the molar value.
parameter: pKd

* Ab17 Fab (Fab, V domains shown) VH: EVQLQQSGPELVKPGASVKISCKASGYSFTDYYMNWVKQSPEKSLEWIGEINPNTGGTTYNQKFKAKATLTVDKSSSTAYMQLKSLTSEDSAVYYCARYYGNLYAMDYWGQGTSVTVSS VL: DILMTQSPSSMSVSLGDTVSITCHASQGISSNIGWLQQKPGKSFKGLIYHGTNLEDGVPSRFSGSGSGADYSLTISSLESEDFADYYCVQYVQFPYTLGGGTKLEIK | 7.00
